Assay Overview: collision cross section of modified peptide (TIMS, N2, iRT-aligned); higher = larger / more extended gas-phase ion
Setup Conditions: charge state: 2; modification: Methyl (K)
Parameter Measured: collision cross section (Å²)
Number only, in Å²; omit the unit.

QUERY: Please look at this sequence and report its collision cross section: LTSLNVKYNNDK [_LTSLNVK(Methyl (K))YNNDK_]
RESULT: 408.99

QUERY: Please look at this sequence and report its collision cross section: DKALPLEAEVAPVK [_DK(Methyl (K))ALPLEAEVAPVK_]
RESULT: 408.8

QUERY: Please look at this sequence and report its collision cross section: VFSIISSEKELK [_VFSIISSEK(Methyl (K))ELK_]
RESULT: 411.54

# evaluate next
QUERY: Please look at this sequence and report its collision cross section: DESFLGKLGGTLAR [_DESFLGK(Methyl (K))LGGTLAR_]
RESULT: 408.12

---

Assay Overview: collision cross section of modified peptide (TIMS, N2, iRT-aligned); higher = larger / more extended gas-phase ion
Setup Conditions: charge state: 3; modification: GlyGly (K)
Could you label it criterion met if measured collision cross section is 500 Å² or higher, and criterion not met otherwise?

Field: example entries. Status: answers known.
QUERY: Is reported collision cross section greater than or equal to 500 Å² here: SITHSTVGSKGEK [_SITHSTVGSK(GlyGly (K))GEK_]
RESULT: criterion not met

QUERY: Is reported collision cross section greater than or equal to 500 Å² here: IINEPTAAAIAYGLDKK [_IINEPTAAAIAYGLDK(GlyGly (K))K_]
RESULT: criterion met

QUERY: Is reported collision cross section greater than or equal to 500 Å² here: GTVPDDAVEALADSLGKK [_GTVPDDAVEALADSLGK(GlyGly (K))K_]
RESULT: criterion met

QUERY: Is reported collision cross section greater than or equal to 500 Å² here: SEASSEFAKK [_SEASSEFAK(GlyGly (K))K_]
RESULT: criterion not met

QUERY: Is reported collision cross section greater than or equal to 500 Å² here: LLIVSTTPYSEKDTK [_LLIVSTTPYSEK(GlyGly (K))DTK_]
RESULT: criterion met

// switching to the query sequence
QUERY: Is reported collision cross section greater than or equal to 500 Å² here: DDSFLGKLGGTLAR [_DDSFLGK(GlyGly (K))LGGTLAR_]
RESULT: criterion not met

---

Assay Overview: collision cross section of modified peptide (TIMS, N2, iRT-aligned); higher = larger / more extended gas-phase ion
Setup Conditions: charge state: 2; modification: Butyryl
Could you label it rule met if measured collision cross section is 400 Å² or higher, and rule not met otherwise?

QUERY: Is reported collision cross section greater than or equal to 400 Å² here: ASNAAVKLAESK [_ASNAAVK(Butyryl)LAESK_]
RESULT: rule not met

Next:
QUERY: Is reported collision cross section greater than or equal to 400 Å² here: IQTKAGEATVK [_IQTK(Butyryl)AGEATVK_]
RESULT: rule not met

QUERY: Is reported collision cross section greater than or equal to 400 Å² here: GFCFITYTDEEPVKK [_GFCFITYTDEEPVK(Butyryl)K_]
RESULT: rule met

QUERY: Is reported collision cross section greater than or equal to 400 Å² here: VGLQVVAVKAPGFGDNR [_VGLQVVAVK(Butyryl)APGFGDNR_]
RESULT: rule met

QUERY: Is reported collision cross section greater than or equal to 400 Å² here: FLQEFYQDDELGKK [_FLQEFYQDDELGK(Butyryl)K_]
RESULT: rule met

QUERY: Is reported collision cross section greater than or equal to 400 Å² here: DLSTVEALQNLKNLK [_DLSTVEALQNLK(Butyryl)NLK_]
RESULT: rule met

All values here come from the supplement of paper PMC10598134.
